Numbers sourced from PubChem BioAssay (NCI).

tested on: UO-31 renal; experiment: NCI tumour cell line growth inhibition, 48 h
MEASUREMENT LABEL: TGI

## Input # query: TGI | item C/C(=N\O)C(CN(C)C)C(c1ccccc1)c1c(O)c2ccccc2oc1=O (stereo unspecified) | system: UO-31 renal
## Output > 100 µM

## Input # query: TGI | item COC(=O)/C1=C/C2CC(/C=C(/c3ccccc3)C(=O)O1)C2 | system: UO-31 renal
## Output > 100 µM

## Input # query: TGI | item Nc1nonc1-c1noc(-c2nonc2N)[n+]1[O-] | system: UO-31 renal
## Output > 100 µM

## Input # query: TGI | item S=C(S)NCCCn1ccnc1 | system: UO-31 renal
## Output > 100 µM

## Input # query: TGI | item O=c1oc2ccccc2c(O)c1C(c1ccc([N+](=O)[O-])cc1)c1c(O)c2ccccc2oc1=O | system: UO-31 renal
## Output > 100 µM

## Input # query: TGI | item CC(C)(C)OC(=O)N(CCCn1c2c(c3ccccc3c1=O)C(=O)c1ccccc1-2)CCN(CCCn1c2c(c3ccccc3c1=O)C(=O)c1ccccc1-2)C(=O)OC(C)(C)C | system: UO-31 renal
## Output > 50 µM
